# TESTED SYSTEM: UniProt P50172
# Sequence (P50172 whole entry): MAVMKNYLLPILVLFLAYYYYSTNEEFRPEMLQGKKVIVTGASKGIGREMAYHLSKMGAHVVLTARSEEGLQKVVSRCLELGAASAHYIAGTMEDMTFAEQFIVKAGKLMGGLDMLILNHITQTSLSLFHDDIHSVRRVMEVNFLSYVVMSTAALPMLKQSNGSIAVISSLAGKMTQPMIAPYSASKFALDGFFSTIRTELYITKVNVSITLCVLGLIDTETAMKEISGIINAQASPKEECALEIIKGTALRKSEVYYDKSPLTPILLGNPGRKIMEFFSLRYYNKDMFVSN
# EXPERIMENTAL DETAILS: Inhibitory activity assay against cortisone reductase of mouse primary adipocytes
# TEST PARAMETERS: differentiated primary adipocytes from visceral fat of ICR male mice, 100 nM [1,2-3H] cortisone, 37° C., read-out: IC50 against cortisone reductase of mouse adipose cell
EXPERIMENTAL READOUT: IC50 (nM)

Worked cases, answers included:
For the compound Cc1cc(C(=O)C2CCOCC2)sc1C(=O)N[C@H]1C2CC3CC1C[C@](O)(C3)C2 [Example 9] , give its reported IC50. 11.1

Give me measured IC50, please, for this compound: Cn1c(C(=O)c2ccccc2F)cc(Cl)c1C(=O)NC1C2CC3CC1CC(O)(C3)C2 (stereo not drawn) [Example 514] 20.7

Tell me its IC50 given CCc1cc(C(=O)C(C)(C)c2ccccc2)n(C)c1C(=O)NC1C2CC3CC1CC(O)(C3)C2 (stereo not drawn) [Example 505] as the entry. 9.6

(P) Cc1cc(C(=O)c2cccs2)sc1C(=O)NC1C2CC3CC1CC(O)(C3)C2 (stereo not drawn) [Example 10]
(Q) CCc1cc(C(=O)c2c(F)cccc2F)n(C)c1C(=O)NC1C2CC3CC1CC(O)(C3)C2 (stereo not drawn) [Example 487]
(R) COc1cc(C(=O)c2cccn2C)ccc1C(=O)NC1C2CC3CC1CC(O)(C3)C2 (stereo not drawn) [Example 55]
(S) CCOc1cc(C(=O)c2cc(F)ccc2F)ccc1C(=O)NC1C2CC3CC1CC(O)(C3)C2 (stereo not drawn) [Example 258]
Which order do these items take when sorted by rising IC50? List them. Please respond with the labels ordered as the question requires. S, R, P, Q

(A) Cc1cc(C(=O)c2cccn2C)sc1C(=O)NC1C2CC3CC1CC(O)(C3)C2 (stereo not drawn) [Example 11]
(B) CCc1cc(C(=O)c2cccn2C)n(C)c1C(=O)NC1C2CC3CC1CC(O)(C3)C2 (stereo not drawn) [Example 485]
Compare reported IC50 values for A and B . Which is lower? Use the label to indicate which entry you chose. A
